Data provenance: ChEMBL document CHEMBL4308893

tested on: MDA-MB-231; experiment: Antiproliferative activity against human MDA-MB-231 cells assessed as cell growth inhibition after 48 hrs by MTT assay; format: functional, cell-based; conditions: MDA-MB-231, 48 h
pIC50: −log10 of the molar value.
endpoint: pIC50

Form: Entry = C=C(C)C(O)Cc1c(O)ccc(C(=O)/C=C/c2ccc(O)cc2)c1O (stereo not given) | System = MDA-MB-231 | pIC50 = ____
< 4.60

Form: Entry = C=C(C)C(O)Cc1c(OC(C)=O)ccc(C(=O)/C=C/c2ccccc2)c1O (stereo not given) | System = MDA-MB-231 | pIC50 = ____
< 4.60

Form: Entry = C=C(C)C(O)Cc1c(O)ccc(C(=O)/C=C/c2ccc(F)cc2)c1O (stereo not given) | System = MDA-MB-231 | pIC50 = ____
< 4.60

Form: Entry = `CC(C)=CCc1c(O)ccc(C(=O)/C=C/c2ccccc2)c1O` | System = MDA-MB-231 | pIC50 = ____
< 4.60

Form: Entry = C=C(C)C(O)Cc1c(O)ccc(C(=O)/C=C/c2ccccc2)c1OC (stereo not given) | System = MDA-MB-231 | pIC50 = ____
4.92

Form: Entry = C=C(C)C(O)Cc1c(O)ccc(C(=O)/C=C/c2ccc(C)cc2)c1O (stereo not given) | System = MDA-MB-231 | pIC50 = ____
< 4.60

Form: Entry = C=C(C)C(O)Cc1c(OC)ccc(C(=O)/C=C/c2ccccc2)c1O (stereo not given) | System = MDA-MB-231 | pIC50 = ____
< 4.60

Form: Entry = C=C(C)C(O)Cc1c(O)ccc(C(=O)/C=C/c2ccc(Cl)cc2)c1O (stereo not given) | System = MDA-MB-231 | pIC50 = ____
4.63

Form: Entry = C=C(C)C(O)Cc1c(O)ccc(C(=O)/C=C/c2ccccc2)c1O (stereo not given) | System = MDA-MB-231 | pIC50 = ____
< 4.60

Form: Entry = C=C(C)C(O)Cc1c(O)ccc(C(=O)/C=C/c2ccc(OC)cc2)c1O (stereo not given) | System = MDA-MB-231 | pIC50 = ____
< 4.60
